# target desc: human IL-13 (source not stated for the assay) (human, UniProt P35225 35-146, limits assumed)
# Sequence (P35225 35-146 limits assumed): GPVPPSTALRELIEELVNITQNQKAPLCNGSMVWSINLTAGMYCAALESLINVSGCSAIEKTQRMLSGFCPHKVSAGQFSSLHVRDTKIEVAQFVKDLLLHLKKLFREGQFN
# test method notes: cell-based or functional assay
endpoint name: IC50, IL-13 induced eotaxin release, Average (nM)
Write the answer as a number in nM, unit excluded.

binder | readout units | reported value
mAb 356 (antibody, V domains shown) VH: EVQLVESGGGLVKPGGSLRLSCAASGFTFSDYNMHWVRQAPGKGLEWVSSISYSSTYIYYADSVRGRFTISRDNAKNSLYLQMNSLRAEDTAVFYCAREDYYYYGLDVWGQGTTVTVSS VL: DIQMTQSPSSLSASVGDRVTITCRASQDIRNDLGWYQQKPGKAPKRLIYDASSLQSGVPSRFSGSGSGTEFTLTISSLQPEDFAIYYCLQHNSYPWTFGQGTKVEIK | nM | 1
mAb 264 (antibody, V domains shown) VH: EVQLVESGGGLVKPGGSLRLSCAASGFTFSSYSMNWVRQAPGKGLEWVSYISTSNSYIYYADSVKGRFTISRDNAKNSLYLQMNSLRAEDTAVYYCARDQVGATLDAFDIWGQGTMVTVSS VL: DIQMTQSPSSLSASVGDRVTFTCRASQDITDDLGWYQQKPGKAPKRLIYAASSLQSGVPSRFSGSGSGTEFTLTISSLQPEDFATYYCLQHNSYPFTFGPGTKVDIR | nM | 0.297

Moving on to another binder below.
q: Recall and state the measured IC50, IL-13 induced eotaxin release, Average for mAb 713 (antibody, V domains shown) VH: EVQLLESGGGLVQPGGSLRLSCAASGFTFSSYAMSWVRQAPGKGLEWVSAFSGSGGSTYYADSVKGRFTISRDNSKNTLYLQMNSLRAEDTAVYYCVQDGLGPYFYNYGMDVWGQGTTVTVSS VL: SYELTQPPSVSVSPGQTASITCSGDKLGDKYTCWFQQKPGQSPVLVIYHDSKRPSGIPERFSGSNSGDTATLTISGTQAMDEADYYCQAWDSSTYVFGTGTKVTVLG .
a: 0.021
